Target: T1, PD-L2 fuse-expressed with an Fc derived from human IgG1 (human, UniProt Q9BQ51 20-219, limits assumed)
T1 construct: Bought reagent; also called hPD-L2-Fc; not shown: Fc of human IgG1
T1 sequence (looked up): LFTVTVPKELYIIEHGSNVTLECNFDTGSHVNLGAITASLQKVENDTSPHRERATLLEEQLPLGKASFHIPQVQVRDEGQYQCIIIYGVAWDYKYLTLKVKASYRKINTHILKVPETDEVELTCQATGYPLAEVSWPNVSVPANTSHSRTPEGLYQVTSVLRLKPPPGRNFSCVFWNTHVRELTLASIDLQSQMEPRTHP
Experiment: SPR Biacore T200; PD1-RFc mobile phase
measuredProperty: kon

{"columns": ["binder", "assayResult"],
 "data": [
  ["Seq No. 6-RFc (PD-1 variant PD1_56#-16 fused to rabbit IgG Fc) (Fc fusion, Signal peptide 1-20 left out; several higher bands in non-reducing SDS-PAGE; also called variant 5; PD1 variant 5 (56#-16); not shown: rabbit IgG Fc (RFc) of vector pcDNA3.4-RFc) PGWFLDSPDRPWNPPTFSPALLVVTEGDNATFTCSFSNTSESFVLNWYRMSPSNQTDKLAAFPEDFFTVSQDCRFRVTQLPNGRDFHMSVVRARRNDSGTYLCGAISLSTPVWIKESLRAELRVTERRAEVPTAH", "6.05e+06 M⁻¹ s⁻¹"],
  ["Seq No. 4-RFc (PD-1 variant PD1_56#-3 fused to rabbit IgG Fc) (Fc fusion, Signal peptide 1-20 left out; several higher bands in non-reducing SDS-PAGE; also called variant 3; Mut3/56#-3; not shown: rabbit IgG Fc (RFc) of vector pcDNA3.4-RFc) PGWFLDSPDRPWNPPTFSPALLVVTEGDNATFTCSFSNTSESFVLNWYRMSPSNQTDKLAAFPWMFCFPGQDCRFRVTQLPNGRDFHMSVVRARRNDSGTYLCGAISLSTPVWIKESLRAELRVTERRAEVPTAH", "6420 M⁻¹ s⁻¹"],
  ["Seq No. 2-RFc (PD-1 variant PD1_56# fused to rabbit IgG Fc) (Fc fusion, Signal peptide 1-20 left out; also called variant 1; Mut1/56#; not shown: rabbit IgG Fc (RFc) of vector pcDNA3.4-RFc) PGWFLDSPDRPWNPPTFSPALLVVTEGDNATFTCSFSNTSESFVLNWYRMSPSNQTDKLAAFPEDRSQPGQDCRFRVTQLPNGRDFHMSVVRARRNDSGTYLCGAISLSTPVWIKESLRAELRVTERRAEVPTAH", "5.6e+06 M⁻¹ s⁻¹"],
  ["Seq No. 7-RFc (PD-1 variant PD1_56#-108 fused to rabbit IgG Fc) (Fc fusion, Signal peptide 1-20 left out; also called variant 6; not shown: rabbit IgG Fc (RFc) of vector pcDNA3.4-RFc) PGWFLDSPDRPWNPPTFSPALLVVTEGDNATFTCSFSNTSESFVLNWYRMSPSNQTDKLAAFPEDRINRSQDCRFRVTQLPNGRDFHMSVVRARRNDSGTYLCGAISLSTPVWIKESLRAELRVTERRAEVPTAH", "1.06e+07 M⁻¹ s⁻¹"],
  ["Seq No. 3-RFc (PD-1 variant PD1_56#-2 fused to rabbit IgG Fc) (Fc fusion, Signal peptide 1-20 left out; several higher bands in non-reducing SDS-PAGE; also called variant 2; Mut2/56#-2; not shown: rabbit IgG Fc (RFc) of vector pcDNA3.4-RFc) PGWFLDSPDRPWNPPTFSPALLVVTEGDNATFTCSFSNTSESFVLNWYRMSPSNQTDKLAAFPFLFNLPGQDCRFRVTQLPNGRDFHMSVVRARRNDSGTYLCGAISLSTPVWIKESLRAELRVTERRAEVPTAH", "4.22e+06 M⁻¹ s⁻¹"],
  ["Seq No. 5-RFc (PD-1 variant PD1_56#-15 fused to rabbit IgG Fc) (Fc fusion, Signal peptide 1-20 left out; also called variant 4; Mut4/56#-15; not shown: rabbit IgG Fc (RFc) of vector pcDNA3.4-RFc) PGWFLDSPDRPWNPPTFSPALLVVTEGDNATFTCSFSNTSESFVLNWYRMSPSNQTDKLAAFPEDFRNCTQDCRFRVTQLPNGRDFHMSVVRARRNDSGTYLCGAISLSTPVWIKESLRAELRVTERRAEVPTAH", "2.12e+06 M⁻¹ s⁻¹"]
]}

Cited source for all entries: patent US20260272979A1
